Target: T1, human B7-H7 expressed on the cell surface (human, UniProt Q9UM44 23-414)
T1 sequence: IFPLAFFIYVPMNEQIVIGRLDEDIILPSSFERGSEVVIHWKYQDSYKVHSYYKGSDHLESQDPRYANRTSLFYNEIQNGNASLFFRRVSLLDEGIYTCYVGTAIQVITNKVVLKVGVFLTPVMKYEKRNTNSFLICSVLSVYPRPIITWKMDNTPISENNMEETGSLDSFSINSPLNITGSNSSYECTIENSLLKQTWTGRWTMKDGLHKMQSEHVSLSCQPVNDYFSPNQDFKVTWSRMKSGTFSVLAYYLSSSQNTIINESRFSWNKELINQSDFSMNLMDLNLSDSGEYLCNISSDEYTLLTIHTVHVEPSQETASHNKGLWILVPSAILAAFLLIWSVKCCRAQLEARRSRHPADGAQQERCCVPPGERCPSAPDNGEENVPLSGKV
Test: cell-based or functional assay
Documented Induction of NK-92 cytotoxicity EC50 across a set of binders
measurement.name: Induction of NK-92 cytotoxicity EC50 (nM)

binder="anti-B7-H7 antibody 5C9 (antibody, V domains shown, Mouse hybridoma antibody) VH: QVQLQQSGAELAKPGASVKMSCKASGYTFTSFWIHWIKQRPGQGLEWIGYIIPNTDYTEYNQKFKDKATFTADKSSSTAYMQLSSLTSEDSAVFYCARGLRGAYYFDYWGQGTTLTVSS VL: DIVLTQSPASLAVSLGLRATISCRSSQSVSTSTNGYMHWYQQKPGQPPKLLIMYASNLESGVPARFSGSGSGTDFTLNIHPVDEEDTATYYCQHSWVLPYTFGGGTKLEIK" unit_spec=nM number=1.6
binder="anti-B7-H7 antibody 5B10 (antibody, V domains shown, Mouse hybridoma antibody) VH: EVQLQQSGPELEKPGASVKISCKASGYSFTGYNMNWVKQSNGKSLEWIGNIDPYSGGSTYNQKFKGKATLTVDKSSSTASLQLKSLTSEDSSVYYCARSFYDAPYLTYWGQGTLVTVSA VL: DIQMTQSPTSLSASVGETVTITCRASENIFIYLAWYQQKQGKSPQLLVFNAKTLAEGVPSRFSGSGSGTQFSLKINSLRPEDFGTYYCQHHYGTPPTFGGGTKLEV" unit_spec=nM number=1.6
binder="anti-B7-H7 antibody 2F10 (antibody, V domains shown, Mouse hybridoma antibody) VH: EIQLQQTGPELVKPGASLRISCKASGYSFTDYIIVWVKQNQGKNLDWIEKINPYYGTTTYNLRFEDKATLTVNKSSTTAYMQLNSLTSEDSAVYYCARWDYVSTLFAMDYWGQGTSITVSS VL: DIVMTQSHKVMSTSVGDRVSIICKASQDVGTAVAWYQQKPGQSPKLLIYWASTRHTGVPDRFTGSGSGTDFILTITNVQSENLANYFCQQYKRYYTFGGGTKLEIK" unit_spec=nM number=0.9

Data provenance is patent US20210198366A1.
